Target: H+,K+-ATPase (Sus scrofa)
Construct: a microsomal fraction of gastric mucosa was prepared from the stomach of swine
Sequence (P19156 2-1034 limits assumed): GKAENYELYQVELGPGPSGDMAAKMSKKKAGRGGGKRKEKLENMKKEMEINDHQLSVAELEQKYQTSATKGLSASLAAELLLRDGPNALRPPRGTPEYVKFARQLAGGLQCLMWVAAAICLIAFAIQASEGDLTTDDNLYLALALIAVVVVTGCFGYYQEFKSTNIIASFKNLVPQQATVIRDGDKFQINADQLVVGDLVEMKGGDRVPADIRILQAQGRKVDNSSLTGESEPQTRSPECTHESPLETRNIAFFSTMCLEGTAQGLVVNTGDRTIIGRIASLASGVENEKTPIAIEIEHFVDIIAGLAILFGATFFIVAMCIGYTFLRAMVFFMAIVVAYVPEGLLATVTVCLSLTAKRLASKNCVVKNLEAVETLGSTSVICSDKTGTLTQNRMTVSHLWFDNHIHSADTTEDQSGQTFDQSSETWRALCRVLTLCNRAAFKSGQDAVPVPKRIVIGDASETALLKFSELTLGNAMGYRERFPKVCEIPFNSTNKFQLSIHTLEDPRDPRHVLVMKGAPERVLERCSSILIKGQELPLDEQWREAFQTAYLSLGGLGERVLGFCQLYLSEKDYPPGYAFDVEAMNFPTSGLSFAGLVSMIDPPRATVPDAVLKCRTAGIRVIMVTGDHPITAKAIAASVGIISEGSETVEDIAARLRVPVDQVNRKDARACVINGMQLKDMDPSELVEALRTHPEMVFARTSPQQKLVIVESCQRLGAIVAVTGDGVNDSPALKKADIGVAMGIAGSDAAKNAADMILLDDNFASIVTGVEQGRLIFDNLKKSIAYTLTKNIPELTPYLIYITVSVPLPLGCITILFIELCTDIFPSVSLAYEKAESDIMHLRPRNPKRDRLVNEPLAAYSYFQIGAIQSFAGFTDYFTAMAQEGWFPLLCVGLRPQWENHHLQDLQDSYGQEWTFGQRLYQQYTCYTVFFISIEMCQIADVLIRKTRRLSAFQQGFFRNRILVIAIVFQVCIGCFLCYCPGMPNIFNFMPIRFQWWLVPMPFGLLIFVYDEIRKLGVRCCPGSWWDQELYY
Sequence (P18434 whole entry partner): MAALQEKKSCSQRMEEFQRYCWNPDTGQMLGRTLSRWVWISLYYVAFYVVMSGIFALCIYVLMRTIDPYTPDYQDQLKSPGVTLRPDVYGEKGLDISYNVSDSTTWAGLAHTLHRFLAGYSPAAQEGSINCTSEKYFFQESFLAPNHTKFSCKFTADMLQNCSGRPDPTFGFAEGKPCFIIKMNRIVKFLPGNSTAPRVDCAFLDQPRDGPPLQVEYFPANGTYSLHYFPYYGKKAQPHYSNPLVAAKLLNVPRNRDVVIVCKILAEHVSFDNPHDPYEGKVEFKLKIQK
Experiment: Proton Potassium-Adenosine Triphosphatase (H+,K+-ATPase) inhibitory activity test
Conditions: microsomal fraction of swine gastric mucosa; pH 6.5, 37° C., 10 mmol/L potassium chloride; malachite green colorimetry at 610 nm
Where a name gives a salt, the structure may show the parent alone.
Reported IC50 by item:
I only need the number, in µM, no unit after it.

Study these solved cases before continuing.
CNCc1cc(-c2cccnc2F)c(Sc2ccoc2C)s1 [Example 19, hydrochloride] :: 0.22
CNCc1cc(-c2ccccc2F)c([S+]([O-])c2cccc(OC)c2)s1 (stereo not shown) [Example 11, fumarate] :: 0.4
CNCc1cn(Cc2ccc(F)cc2)c(-c2ccccc2)n1 [Example 3, dihydrochloride] :: 309
CNCc1nc(-c2ccccc2)n(Cc2ccc(F)cc2)c1Cl [Example 6, oxalate] :: 1.4
CNCc1cc(Sc2ccc(Cl)nc2)n(-c2ccccc2Cl)n1 [Example 27, hydrochloride] :: 0.031

[in] Please report the recorded IC50 for CNCc1cc(-c2cccnc2F)c(Sc2nccs2)s1 [Example 18, fumarate] .
[out] 2.2

[in] What do you have for CNCc1cc(-c2ccccc2F)c(Sc2cccc(OC)c2)s1 [Example 10, fumarate] ?
[out] 0.17

Hey, just so you know, these numbers are from patent US8334301B2.
